The reader will find reported %FRET values listed item by item below.
Biological target: T1, DsRED-tagged Occludin (UniProt Q16625 1-522)
T1 sequence (looked up): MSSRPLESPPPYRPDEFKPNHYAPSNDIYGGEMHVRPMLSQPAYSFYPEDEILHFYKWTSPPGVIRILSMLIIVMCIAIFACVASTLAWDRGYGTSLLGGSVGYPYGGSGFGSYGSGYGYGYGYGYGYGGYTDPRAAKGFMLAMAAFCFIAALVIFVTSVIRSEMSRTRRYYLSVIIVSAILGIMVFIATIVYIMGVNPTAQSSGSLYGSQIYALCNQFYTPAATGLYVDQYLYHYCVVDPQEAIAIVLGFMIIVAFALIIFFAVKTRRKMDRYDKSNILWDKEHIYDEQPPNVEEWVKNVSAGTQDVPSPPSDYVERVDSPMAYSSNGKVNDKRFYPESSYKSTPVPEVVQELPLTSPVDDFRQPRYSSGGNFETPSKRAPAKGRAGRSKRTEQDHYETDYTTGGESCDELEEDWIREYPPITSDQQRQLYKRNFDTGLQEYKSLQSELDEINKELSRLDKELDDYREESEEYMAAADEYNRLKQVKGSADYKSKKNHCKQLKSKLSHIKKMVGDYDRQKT
Assay: FRET or BRET

| Binder | %FRET, % |
| --- | --- |
| Claudin-1 tagged with AcGFP or DsRED (natural protein, UniProt O95832 1-211, looked up) MANAGLQLLGFILAFLGWIGAIVSTALPQWRIYSYAGDNIVTAQAMYEGLWMSCVSQSTGQIQCKVFDSLLNLSSTLQATRALMVVGILLGVIAIFVATVGMKCMKCLEDDEVQKMRMAVIGGAIFLLAGLAILVATAWYGNRIVQEFYDPMTPVNARYEFGQALFTGWAAASLCLLGGALLCCSCPRKTTSYPTPRPYPKPAPSSGKDYV | 48 |
| AcGFP-tagged Claudin-12 (natural protein, UniProt P56749 1-244, looked up) MGCRDVHAATVLSFLCGIASVAGLFAGTLLPNWRKLRLITFNRNEKNLTVYTGLWVKCARYDGSSDCLMYDTTWYSSVDQLDLRVLQFALPLSMLIAMGALLLCLIGMCNTAFRSSVPNIKLAKCLVNSAGCHLVAGLLFFLAGTVSLSPSIWVIFYNIHLNKKFEPVFSFDYAVYVTIASAGGLFMTSLILFIWYCTCKSLPSPFWQPLYSHPPSMHTYSQPYSARSRLSAIEIDIPVVSHTT | 38 |
| AcGFP-tagged Claudin-6 (natural protein, UniProt P56747 1-220, looked up) MASAGMQILGVVLTLLGWVNGLVSCALPMWKVTAFIGNSIVVAQVVWEGLWMSCVVQSTGQMQCKVYDSLLALPQDLQAARALCVIALLVALFGLLVYLAGAKCTTCVEEKDSKARLVLTSGIVFVISGVLTLIPVCWTAHAIIRDFYNPLVAEAQKRELGASLYLGWAASGLLLLGGGLLCCTCPSGGSQGPSHYMARYSTSAPAISRGPSEYPTKNYV | 27 |
